molecular target: CDK9 (Homo sapiens); construct: endogenous in cells; host or cells: MDA-MB-231; assay: CDK protein degradation activity (Western blotting), CDK9; type: cell-based; details: MDA-MB-231 cells, 1 μM, 16 hours, Western blot
PROPERTY_NAME: Enzyme degradation CDK9 (% remaining) @ 1 μM

• O=C1CC[C@H](N2C(=O)c3ccc(N4CCN(CC5CCN(c6ccc(Nc7ncnc8c7ncn8C7CC(NC(=O)Cc8ccccc8)C7)cc6)CC5)CC4)cc3C2=O)C(=O)N1 (some centres unmarked) = 0%
• O=C1CC[C@H](N2C(=O)c3ccc(N4CCC(C(=O)N5CCC(CN6CCN(c7ccc(Nc8ncnc9c8ncn9C8CC(NC(=O)c9c(Cl)cccc9Cl)C8)cc7)CC6)CC5)CC4)cc3C2=O)C(=O)N1 (some centres unmarked) = 0/0/0%
• O=C1CC[C@H](n2nnc3ccc(N4CCC(CN5CCC(CCNc6ncnc7c6ncn7C6CC(NC(=O)c7c(Cl)cccc7Cl)C6)CC5)CC4)cc3c2=O)C(=O)N1 (some centres unmarked) = 10%
• O=C1CCC(N2C(=O)c3ccc(N4CCC(C(=O)N5CCC(CN6CCN(c7ccc(Nc8ncnc9c8ncn9[C@H]8C[C@@H](NC(=O)c9cccc(Cl)n9)C8)cc7)CC6)CC5)CC4)cc3C2=O)C(=O)N1 (some centres unmarked) = 0/0/0%
• O=C1CC[C@H](N2C(=O)c3cc(F)c(N4CCC(CCN5CCN(c6ccc(Nc7ncnc8c7ncn8C7CC(NC(=O)c8c(Cl)cccc8Cl)C7)cc6)CC5)CC4)cc3C2=O)C(=O)N1 (some centres unmarked) = 0/0/0%

* * *

Target: CDK2 (Homo sapiens, UniProt P24941)
Construct: endogenous in cells; host or cells: MDA-MB-231
Assay: CDK protein degradation activity (Western blotting), CDK2
Assay type: cell-based
Settings: MDA-MB-231 cells, 0.1 μM, 16 hours, Western blot
Protocol: In order to evaluate the CDK protein degradation activity of the compounds according to the present invention, the following experiment was conducted. MDA-MB-231 cells were seeded at 5×10^5 cells per well in a 6-well plate. The next day, the compounds were treated in each well to achieve final concentrations of 100 nM, 1 μM, and 10 μM. […] Cell lysates were quantified and separated by size using sodium dodecyl sulfate-polyacrylamide gel electrophoresis (SDS-PAGE). […]
PROPERTY_NAME: Enzyme degradation CDK2 (% remaining) @ 0.1 μM (%)

- O=C1CC[C@H](N2C(=O)c3ccc(NCC(=O)N4CCC(CC(=O)N5CCN(c6ccc(Nc7ncnc8c7ncn8C7CC(NC(=O)Cc8ccccc8)C7)cc6)CC5)CC4)cc3C2=O)C(=O)N1 (some centres unmarked) [Compound 213]: 50
- O=C1CC[C@H](N2C(=O)c3ccc(N4CCC(CC(=O)N5CCN(c6ccc(Nc7ncnc8c7ncn8[C@H]7C[C@@H](NC(=O)Cc8ccccc8)C7)cc6)CC5)CC4)cc3C2=O)C(=O)N1 [Compound 216]: 40
- Cc1cccc(C(=O)N[C@H]2C[C@@H](n3cnc4c(NCc5ccc(OCCCN6CCN(c7ccc8c(c7)C(=O)N(C7CCC(=O)NC7=O)C8=O)CC6)cc5)ncnc43)C2)n1 (some centres unmarked) [Compound 116]: 30

* * *

Biological target: CDK2 (Homo sapiens)
Construct: endogenous in cells; host or cells: MDA-MB-231
Assay: CDK protein degradation activity (Western blotting), CDK2
Type: cell-based
Settings: MDA-MB-231 cells, 10 μM, 16 hours, Western blot
Experimental: In order to evaluate the CDK protein degradation activity of the compounds according to the present invention, the following experiment was conducted. MDA-MB-231 cells were seeded at 5×10^5 cells per well in a 6-well plate. The next day, the compounds were treated in each well to achieve final concentrations of 100 nM, 1 μM, and 10 μM. […] Cell lysates were quantified and separated by size using sodium dodecyl sulfate-polyacrylamide gel electrophoresis (SDS-PAGE). […]
PROPERTY_NAME: Enzyme degradation CDK2 (% remaining) @ 10 μM (%)

- O=C1CC[C@H](N2C(=O)c3cccc(CCCN4CCC(CN5CCN(c6ccc(Nc7ncnc8c7ncn8C7CC(NC(=O)c8cccc(C(F)(F)F)n8)C7)cc6)CC5)CC4)c3C2=O)C(=O)N1 (stereo partly shown): 30
- Cc1cccc(C(=O)NC2CC(n3cnc4c(NC5CCN(C(=O)CC6CCN(C(=O)CNc7cccc8c7C(=O)N([C@H]7CCC(=O)NC7=O)C8=O)CC6)CC5)ncnc43)C2)n1 (stereo partly shown): 50
- COc1ccc(C(=O)N2CCC3(CC2)CC(N2CCC(c4ccc(Nc5ncnc6c5ncn6[C@H]5C[C@@H](NC(=O)Cc6ccccc6)C5)cc4)CC2)C3)cc1N1CCC(=O)NC1=O: 70
- Cc1cccc(C(=O)NC2CC(n3cnc4c(NCc5ccc(OCC6CCN(c7ccc8c(c7)C(=O)N([C@H]7CCC(=O)NC7=O)C8=O)CC6)cc5)ncnc43)C2)n1 (stereo partly shown): 80
- O=C1CC[C@H](N2C(=O)c3cc(F)c(N4CCN(CCCC5CCN(c6ccc(Nc7ncnc8c7ncn8[C@H]7C[C@@H](NC(=O)Cc8ccccc8)C7)cc6)CC5)CC4)cc3C2=O)C(=O)N1: 10
- O=C1CC[C@@H](c2ccc(OCC(=O)N3CCC4(CC3)CC(N3CCC(c5ccc(Nc6ncnc7c6ncn7C6CC(NC(=O)Cc7ccccc7)C6)cc5)CC3)C4)cc2)C(=O)N1 (stereo partly shown): 60
- O=C1CC[C@H](n2nnc3ccc(N4CCC(CCN5CCN(c6ccc(Nc7ncnc8c7ncn8C7CC(NC(=O)Cc8ccccc8)C7)cc6)CC5)CC4)cc3c2=O)C(=O)N1 (stereo partly shown): 10

* * *

Measured Enzyme degradation CDK2 (% remaining) @ 10 μM accompanies every entry in the list below.
target: CDK2 (Homo sapiens, UniProt P24941); construct: endogenous in cells; host or cells: MDA-MB-231; experiment: CDK protein degradation activity (Western blotting), CDK2; assay type: cell-based; conditions: MDA-MB-231 cells, 10 μM, 16 hours, Western blot
PROPERTY_NAME: Enzyme degradation CDK2 (% remaining) @ 10 μM (%)

* O=C1CC[C@H](N2C(=O)C=C(Nc3cccc(CC(=O)N4CCC(CC(=O)N5CCN(c6ccc(Nc7ncnc8c7ncn8[C@H]7C[C@@H](NC(=O)Cc8ccccc8)C7)cc6)CC5)CC4)c3)C2=O)C(=O)N1 [Compound 196] | 100
* O=C1CC[C@H](N2C(=O)c3cc(F)c(N4CCC(CN5CCN(c6ccc(Nc7ncnc8c7ncn8[C@H]7C[C@@H](NC(=O)c8cccc(Cl)n8)C7)cc6)CC5)CC4)cc3C2=O)C(=O)N1 [Compound 416] | 10
* Cc1cccc(C(=O)N[C@H]2C[C@@H](n3cnc4c(NC5CCN(C(=O)CC6CCN(C(=O)COc7cccc8c7C(=O)N([C@H]7CCC(=O)NC7=O)C8=O)CC6)CC5)ncnc43)C2)n1 [Compound 50] | 10

* * *

target: CDK2 (Homo sapiens, UniProt P24941); construct: endogenous in cells; host or cells: MDA-MB-231; assay: CDK protein degradation activity (Western blotting), CDK2; format: cell-based; settings: MDA-MB-231 cells, 10 μM, 16 hours, Western blot
PROPERTY_NAME: Enzyme degradation CDK2 (% remaining) @ 10 μM (%)

• Cc1cccc(C(=O)N[C@H]2C[C@@H](n3cnc4c(Nc5ccc(N6CCN(CC7CCN(c8cc9c(cc8F)C(=O)N([C@H]8CCC(=O)NC8=O)C9=O)CC7)CC6)cc5)ncnc43)C2)n1 = 10
• O=C1CCN(c2coc3cc(C(=O)N4CCC(CN5CCN(c6ccc(Nc7ncnc8c7ncn8[C@H]7C[C@@H](NC(=O)Cc8ccccc8)C7)cc6)CC5)CC4)ccc23)C(=O)N1 = 20

* * *

target: CDK9 (Homo sapiens, UniProt P50750); construct: endogenous in cells; host or cells: MDA-MB-231; assay: CDK protein degradation activity (Western blotting), CDK9; type: cell-based; settings: MDA-MB-231 cells, 1 μM, 16 hours, Western blot
Sequence (P50750 whole entry): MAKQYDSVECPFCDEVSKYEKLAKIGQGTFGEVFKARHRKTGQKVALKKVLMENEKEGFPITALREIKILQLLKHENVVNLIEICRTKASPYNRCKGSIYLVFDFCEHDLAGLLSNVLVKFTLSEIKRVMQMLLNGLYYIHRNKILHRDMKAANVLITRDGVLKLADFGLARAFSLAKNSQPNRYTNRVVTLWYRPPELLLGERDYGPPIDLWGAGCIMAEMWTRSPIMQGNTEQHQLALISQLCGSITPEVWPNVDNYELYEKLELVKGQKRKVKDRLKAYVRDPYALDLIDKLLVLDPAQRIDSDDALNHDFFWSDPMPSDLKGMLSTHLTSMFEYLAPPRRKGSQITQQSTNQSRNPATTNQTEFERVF
Measured Enzyme degradation CDK9 (% remaining) @ 1 μM accompanies every entry in the list below.
PROPERTY_NAME: Enzyme degradation CDK9 (% remaining) @ 1 μM

- O=C1CC[C@H](N2C(=O)c3cc(F)c(N4CCC5(CC4)CC(N4CCN(c6ccc(Nc7ncnc8c7ncn8[C@H]7C[C@@H](NC(=O)Cc8ccccc8)C7)cc6)CC4)C5)cc3C2=O)C(=O)N1 [Compound 244]: 0%
- N#Cc1cccc(C(=O)N[C@H]2C[C@@H](n3cnc4c(Nc5ccc(N6CCN(CC7CCN(c8cc9c(cc8F)C(=O)N(C8CCC(=O)NC8=O)C9=O)CC7)CC6)cc5)ncnc43)C2)n1 (some centres unmarked) [Compound 414]: 10/10/10%
- O=C1CC[C@H](N2C(=O)c3cccc(NCC(=O)N4CCC(CCCN5CCN(c6ccc(Nc7ncnc8c7ncn8[C@H]7C[C@@H](NC(=O)Cc8ccccc8)C7)cc6)CC5)CC4)c3C2=O)C(=O)N1 [Compound 253]: 0/0/0%
- O=C1CC[C@H](N2C(=O)c3ccc(NCC(=O)N4CCC(CN5CCN(c6ccc(Nc7ncnc8c7ncn8C7CC(NC(=O)c8c(Cl)cccc8Cl)C7)cc6)CC5)CC4)cc3C2=O)C(=O)N1 (some centres unmarked) [Compound 164]: 0/0/0%
- O=C1CC[C@H](N2C(=O)c3cccc(NCC(=O)N4CCC(CN5CCN(c6ccc(Nc7ncnc8c7ncn8C7CC(NC(=O)c8cccc(Cl)n8)C7)cc6)CC5)CC4)c3C2=O)C(=O)N1 (some centres unmarked) [Compound 419]: 0/0/0%
